assay: Stability in human plasma incubated upto 60 mins; type: ADME, cell-free; conditions: read-out: Stability
test readout: remaining at 1 h

                       smiles_structure  reading
0  [11CH3]c1ccc(OC(=O)N2CCN3CCC2CC3)cc1    > 80%

----------
molecular target: Neuronal acetylcholine receptor; alpha4/beta2 (Homo sapiens, UniProt P17787+P43681); test: Binding affinity to nACh alpha4beta2 receptor (unknown origin) assessed as inhibition constant
Sequence (P17787 whole entry): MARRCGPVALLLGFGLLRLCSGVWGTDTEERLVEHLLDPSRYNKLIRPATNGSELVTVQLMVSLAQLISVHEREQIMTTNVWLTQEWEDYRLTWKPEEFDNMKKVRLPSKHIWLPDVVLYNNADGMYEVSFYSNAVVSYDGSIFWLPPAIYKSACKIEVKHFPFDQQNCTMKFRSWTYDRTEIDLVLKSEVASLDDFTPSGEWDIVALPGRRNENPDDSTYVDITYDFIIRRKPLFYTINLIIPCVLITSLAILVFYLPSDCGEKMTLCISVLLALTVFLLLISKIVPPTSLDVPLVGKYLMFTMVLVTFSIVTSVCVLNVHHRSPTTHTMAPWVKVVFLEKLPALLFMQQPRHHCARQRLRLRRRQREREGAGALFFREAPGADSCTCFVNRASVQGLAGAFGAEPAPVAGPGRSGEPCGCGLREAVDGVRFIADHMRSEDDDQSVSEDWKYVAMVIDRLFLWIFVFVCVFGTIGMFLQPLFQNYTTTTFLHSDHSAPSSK
Sequence (P43681 whole entry): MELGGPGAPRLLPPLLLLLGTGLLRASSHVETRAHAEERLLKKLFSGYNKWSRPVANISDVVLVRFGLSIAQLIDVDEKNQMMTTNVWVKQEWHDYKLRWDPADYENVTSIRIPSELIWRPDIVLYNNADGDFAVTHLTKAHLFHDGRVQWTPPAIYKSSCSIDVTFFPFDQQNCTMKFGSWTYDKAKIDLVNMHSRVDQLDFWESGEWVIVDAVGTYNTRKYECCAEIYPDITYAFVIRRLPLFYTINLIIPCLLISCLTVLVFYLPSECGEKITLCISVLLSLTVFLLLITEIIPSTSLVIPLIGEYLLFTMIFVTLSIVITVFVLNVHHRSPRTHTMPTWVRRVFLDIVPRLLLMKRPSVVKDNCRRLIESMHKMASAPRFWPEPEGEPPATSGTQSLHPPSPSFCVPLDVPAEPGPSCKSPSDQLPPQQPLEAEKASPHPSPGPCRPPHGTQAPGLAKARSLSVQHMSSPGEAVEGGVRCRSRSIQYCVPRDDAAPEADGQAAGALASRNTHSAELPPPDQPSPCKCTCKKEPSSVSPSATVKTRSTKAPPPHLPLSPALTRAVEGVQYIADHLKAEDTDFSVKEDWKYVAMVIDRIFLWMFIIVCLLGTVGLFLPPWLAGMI
test readout: Ki

                         smiles_structure  test_readout  reading
0  [18F]c1ccc(-c2nnc(N3CCN4CCC3CC4)o2)cc1            Ki  > 10 µM
